The following compounds are shown together with reported IC50 values.
- System tested: PfDPCK (Plasmodium falciparum, UniProt Q8IL34)
- Sequence (Q8IL34 entry or part of it): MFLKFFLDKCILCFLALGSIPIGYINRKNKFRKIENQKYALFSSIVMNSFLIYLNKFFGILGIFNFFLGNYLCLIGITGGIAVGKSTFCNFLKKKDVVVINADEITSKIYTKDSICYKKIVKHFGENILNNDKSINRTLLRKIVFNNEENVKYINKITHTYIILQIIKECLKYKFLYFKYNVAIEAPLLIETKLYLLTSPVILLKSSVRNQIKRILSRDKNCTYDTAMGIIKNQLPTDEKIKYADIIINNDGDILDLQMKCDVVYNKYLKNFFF
- Run description: PfDPCK inhibition, enzyme-coupled fluorescence ADP detection assay (HTS and IC50 determination)
- Assay type: biochemical
- Study conditions: Table 2, PfDPCK inhibitor scaffolds Gr4, Gr5, Gr8; read-out: IC50
Could you give me the number in µM? Just the number is fine.

Reference set, count: 3
[
  {
    "Structure smiles": "CCOc1ccc(-n2cc(-c3ccccc3)c3c(NCCN(C)C)ncnc32)cc1",
    "System tested": "PfDPCK (Plasmodium falciparum, UniProt Q8IL34)",
    "Display unit": "µM",
    "IC50": 2.15
  },
  {
    "Structure smiles": "CC(C)(C)c1cc(C(=O)Cn2c(NCCO)nc3ccccc32)cc(C(C)(C)C)c1O",
    "System tested": "PfDPCK (Plasmodium falciparum, UniProt Q8IL34)",
    "Display unit": "µM",
    "IC50": 1.93
  },
  {
    "Structure smiles": "Cc1cccc(-n2cc(-c3ccccc3)c3c(NCCOCCO)ncnc32)c1",
    "System tested": "PfDPCK (Plasmodium falciparum, UniProt Q8IL34)",
    "Display unit": "µM",
    "IC50": 6.14
  }
]

Request: // lookup IC50 for Cc1cc(-c2csc(-c3ccsc3)n2)c(C)n1CCCCCC(=O)O
Response: 14.7

====

- System tested: PfDPCK (Plasmodium falciparum, UniProt Q8IL34)
- Run description: Mechanism of PfDPCK inhibition by Lineweaver-Burk plot
- Type: biochemical
- Study conditions: in respect of dephospho-CoA; 200 μM ATP
The following compounds are shown together with reported pKi values.
Notebook: values listed as pKi are -log10 of the concentration (mol/L).

[
  {
    "Compound": "CC(C)(C)c1cc(C(=O)Cn2c(NCCO)nc3ccccc32)cc(C(C)(C)C)c1O [Compound A-15]",
    "System tested": "PfDPCK (Plasmodium falciparum, UniProt Q8IL34)",
    "pKi": 6.33
  }
]

--- query ---
Request: // lookup pKi for COc1cc(N2CCCC2)cc2ccc(-c3ccccn3)nc12 [Compound A-127]
Response: 4.83

====

The following molecules are shown together with reported IC50 values.
- Test system: HepG2 cell line
- Run description: Cytotoxicity assay (Cell Counting Kit-8)
- Type: cell-based, human
- Study conditions: Homo sapiens, HepG2; Table S1; means ± SEM; read-out: IC50 (μM) HepG2
Could you give me the number in µM? Just the number is fine.

Request: Hi! What's the reported IC50 for CC(C)(C)c1cc(C(=O)Cn2c(NCCO)nc3ccccc32)cc(C(C)(C)C)c1O [Compound A-15] on HepG2 cell line?
Response: 29.9

Request: Hi! What's the reported IC50 for Cc1cccc(-n2cc(-c3ccccc3)c3c(NCCOCCO)ncnc32)c1 [Compound A-42] on HepG2 cell line?
Response: 63.2

Request: Hi! What's the reported IC50 for CCOc1ccc(-n2cc(-c3ccccc3)c3c(NCCN(C)C)ncnc32)cc1 [Compound A-17] on HepG2 cell line?
Response: 8.45

====

- System tested: PfDPCK (Plasmodium falciparum, UniProt Q8IL34)
- Run description: PfDPCK inhibition, enzyme-coupled fluorescence ADP detection assay (HTS and IC50 determination)
- Type: biochemical
- Study conditions: Table S1; means ± SEM; read-out: IC50 (μM) Pf DPCK
Measured quantity: IC50 (µM)
Could you give me the number in µM? Just the number is fine.

Request: // lookup IC50 for COc1cc(N2CCCC2)cc2ccc(-c3ccccn3)nc12
Response: 5.01

====

- System: HepG2 cell line
- Run description: Cytotoxicity assay (Cell Counting Kit-8)
- Assay type: cell-based, human
- Study conditions: Homo sapiens, HepG2; 48 h; means ± SEMs; read-out: IC50 (μM) of: HepG2
Measured quantity: IC50

[
  {
    "Molecule": "O=C1C(O)=C([C@H]2CC[C@H](c3ccc(Cl)cc3)CC2)C(=O)c2ccccc21 [Atovaquone, reference compound]",
    "Observed": "79.9 µM"
  },
  {
    "Molecule": "Cc1ccc(S(=O)(=O)Nc2cc(Cl)c(O)c3ccccc23)c(C)c1",
    "Observed": "39.6 µM"
  },
  {
    "Molecule": "O=Cc1cc(C23CC4CC(CC(C4)C2)C3)cc([N+](=O)[O-])c1O",
    "Observed": "> 100 µM"
  },
  {
    "Molecule": "CNc1nc(NC(C)(C)C)nc(NC(C)(C)C)n1",
    "Observed": "> 100 µM"
  },
  {
    "Molecule": "CCNC(=N)SCc1c(C)c(C)c(C)c(C)c1C",
    "Observed": "9.04 µM"
  },
  {
    "Molecule": "COc1ccc(NC(C)=O)cc1/N=C/c1cc(Br)cc(Br)c1O",
    "Observed": "> 100 µM"
  },
  {
    "Molecule": "OC(c1cc(C(F)(F)F)nc2c(C(F)(F)F)cccc12)C1CCCCN1 (stereo not shown) [Mefloquine, reference compound]",
    "Observed": "1.73 µM"
  },
  {
    "Molecule": "Cc1cn2c(/C=C3\\C(=O)N(C)c4ccccc43)c(C)nc2s1",
    "Observed": "> 100 µM"
  }
]

Request: // lookup IC50 for Cc1cc(-c2csc(NC3CC3)n2)c(C)n1CCC1=CCCCC1
Response: 81.5 µM

Request: // lookup IC50 for CCN(CC)CCn1c(=N)n(CC(=O)c2cc(C(C)(C)C)c(O)c(C(C)(C)C)c2)c2ccccc21
Response: 3.75 µM

====

- System tested: PfDPCK (Plasmodium falciparum, UniProt Q8IL34)
- Run description: PfDPCK inhibition, enzyme-coupled fluorescence ADP detection assay (HTS and IC50 determination)
- Type: biochemical
- Study conditions: recombinant enzyme; means ± SEMs; read-out: IC50 (μM) of: PfDPCK
Flag rule - IC50 less than 3 µM flags satisfied; the remaining entries get not satisfied.

Known results for compounds:
[
  {
    "Compound": "O=C1NC(=O)/C(=C/c2ccc(C(=O)Nc3ccc(O)cc3C(=O)O)cc2)S1",
    "Qualitative label": "not satisfied"
  },
  {
    "Compound": "CCCn1c(C)cc(-c2csc(NC(=O)C3CC3)n2)c1C",
    "Qualitative label": "satisfied"
  },
  {
    "Compound": "Cc1cc(-c2csc(NC3CC3)n2)c(C)n1CCC1=CCCCC1",
    "Qualitative label": "satisfied"
  }
]

Request: Hello, I'm reviewing records and need to know if IC50 of Cc1ccc(S(=O)(=O)Nc2cc(Cl)c(O)c3ccccc23)c(C)c1 is below 3 µM. Could you check?
Response: satisfied

Request: Hello, I'm reviewing records and need to know if IC50 of COc1ccc(NC(C)=O)cc1/N=C/c1cc(Br)cc(Br)c1O is below 3 µM. Could you check?
Response: not satisfied

Request: Hello, I'm reviewing records and need to know if IC50 of COC(C(=O)N/N=C/c1ccccc1)c1ccccc1 (stereo not shown) is below 3 µM. Could you check?
Response: not satisfied

Request: Hello, I'm reviewing records and need to know if IC50 of Cc1ccc(-c2nnc(Nc3ccc(O)cc3)c3ccccc23)cc1S(=O)(=O)NCCO is below 3 µM. Could you check?
Response: not satisfied

Request: Hello, I'm reviewing records and need to know if IC50 of CCNC(=N)SCc1c(C)c(C)c(C)c(C)c1C is below 3 µM. Could you check?
Response: satisfied

Request: Hello, I'm reviewing records and need to know if IC50 of CCN(CC)CCn1c(=N)n(CC(=O)c2cc(C(C)(C)C)c(O)c(C(C)(C)C)c2)c2ccccc21 is below 3 µM. Could you check?
Response: not satisfied

Request: Hello, I'm reviewing records and need to know if IC50 of S=C(NCCc1ccccc1)NNc1nc2ccccc2[nH]1 is below 3 µM. Could you check?
Response: not satisfied

Request: Hello, I'm reviewing records and need to know if IC50 of Cc1cn2c(/C=C3\C(=O)N(C)c4ccccc43)c(C)nc2s1 is below 3 µM. Could you check?
Response: not satisfied

====

- System tested: PfDPCK (Plasmodium falciparum, UniProt Q8IL34)
- Run description: Mechanism of PfDPCK inhibition by Lineweaver-Burk plot
- Format: biochemical
- Study conditions: in respect of ATP; 200 μM dephospho-CoA
Measured quantity: Ki
Answers without a unit are incomplete; give the number and then its unit.

[
  {
    "Structure smiles": "CC(C)(C)c1cc(C(=O)Cn2c(NCCO)nc3ccccc32)cc(C(C)(C)C)c1O",
    "Ki": "10.4 µM"
  }
]

--- query ---
Request: // lookup Ki for COc1cc(N2CCCC2)cc2ccc(-c3ccccn3)nc12
Response: 8.99 µM
